# Subject of test: OR51B6 peptide/HLA-A*02:01 complex (recombinant) (human)
# Test summary: SPR

Binder: AS170036 VL1VH1-VHG108N (scFv) scFv: QSALTQPRSVSGSPGQSVTISCAGTSSDVGSENYVSWYQQHPGKAPKLMIYQVNKRASGVPDRFSGSKSGNTASLTISGLQAEDEADYYCASYRSSDHNIVFGGGTKLTVLGGGGSGGGGSGGGGSEVQLVESGGGLVQPGGSLRLSCAASGFTFSSYAMSWVRQAPGKGLEWVSTINSGTGSPYYADSVKGRFTISRDNSKNTLYLQMNSLRAEDTAVYYCAKNFFDGSWFLNPPAMDYWGQGTLVTVSSHHHHHH
binding result: no binding

Binder: AS170036 VL1VH1-VHS57R (scFv) scFv: QSALTQPRSVSGSPGQSVTISCAGTSSDVGSENYVSWYQQHPGKAPKLMIYQVNKRASGVPDRFSGSKSGNTASLTISGLQAEDEADYYCASYRSSDHNIVFGGGTKLTVLGGGGSGGGGSGGGGSEVQLVESGGGLVQPGGSLRLSCAASGFTFSSYAMSWVRQAPGKGLEWVSTINSGTGRPYYADSVKGRFTISRDNSKNTLYLQMNSLRAEDTAVYYCAKNFFDGSWFLGPPAMDYWGQGTLVTVSSHHHHHH
binding result: no binding

All values here come from patent US20240279318A1.
